All figures here come from ChEMBL document CHEMBL4732183.

Assay: Half life in C57BL/6 mouse at 10 mg/kg, ip measured upto 24 hrs
Assay type: ADME, organism-based
Conditions: in vivo
metric name: half-life (h)
The reply should contain only the number, in h.

### Prompt State the recorded half-life for this entry: O=C(Nc1ccc(Br)cc1)NC(C(=O)Nc1cccnc1)C1CCCC1 (stereo unspecified)
### Response 2.08

###

Experiment: AUC (0 to infinity) in C57BL/6 mouse at 10 mg/kg, ip measured upto 24 hrs
Format: ADME, organism-based
Design: route intraperitoneal, dose 10 mg/kg, time <=24
Conditions: in vivo
metric name: AUC(0-inf) (ng·h/mL)
Report the figure in ng·h/mL without appending any unit label.

### Prompt # input compound: O=C(Nc1ccc(Br)cc1)NC(C(=O)Nc1cccnc1)C1CCCC1 (stereo unspecified) ; wanted: its AUC(0-inf)
### Response 69000

###

Assay: Tmax in C57BL/6 mouse at 10 mg/kg, ip measured upto 24 hrs
Type: ADME, organism-based
Settings: in vivo
metric name: Tmax (min)
A number alone suffices; assume min.

### Prompt Recorded Tmax for O=C(Nc1ccc(Br)cc1)NC(C(=O)Nc1cccnc1)C1CCCC1 (stereo unspecified) , please?
### Response 30

###

I'd be grateful if you could share measured half-life at 1 µM for these entries.
Test: Metabolic stability in human liver microsomes assessed as half life at 1 uM incubated for 30 mins by LC-MS/MS analysis
Format: ADME, Microsome
Write the number in h without appending the unit.

### Prompt // half-life at 1 µM lookup, key: O=C(Nc1ccc(Br)cc1)NC(C(=O)Nc1cccnc1)C1CCOCC1 (centres undefined)
### Response 3.13

### Prompt Moving on to the next compound: `O=C(Nc1ccc(Br)cc1)NC1(C(=O)Nc2cccnc2)CCCC1`
### Response 1.8

### Prompt Okay, and `O=C(Nc1ccc(Br)cc1)NC1(C(=O)Nc2ccccn2)CCCC1` ?
### Response 0.133
